# Assayed System: T1, mouse IL-2Rγ (mouse) (UniProt P34902)
# T1 sequence (looked up): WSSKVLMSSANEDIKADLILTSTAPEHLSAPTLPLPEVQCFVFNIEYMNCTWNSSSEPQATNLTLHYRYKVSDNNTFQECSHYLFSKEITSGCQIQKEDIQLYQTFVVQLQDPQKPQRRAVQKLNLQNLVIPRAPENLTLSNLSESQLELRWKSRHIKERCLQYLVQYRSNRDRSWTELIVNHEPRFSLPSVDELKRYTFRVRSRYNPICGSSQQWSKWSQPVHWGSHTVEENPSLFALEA
# Run Description: PE binding ELISA, periplasmic extract on coated protein
Measured Parameter: OD (PE binding ELISA) (OD450 nm)

binder="FJ1427_P035MP04A07 (VHH) VHH: QLQLVESGGGWVQVGESLRLSCAPSGRTFVSGIMGWFRQAPGKEREFVARIILNNNSTRYIDSVKGRFTISRDSAKNTMYLQMDSLRPEDTAVYYCAARDRYGSGNSLSPSAYDYWGQGTQVTVSS" unit_info="OD450 nm" value=0.049
binder="FJ1427_P035MP04B06 (VHH) VHH: QLQLVESGGGWVQVGESLRLSCVPSGRTFVSGIMGWFRQAPGKEREFVARIILNNNSTRYTDSVKGRFTISRDSAKNTMYLQMNTLRPEDTAVYYCAARDRYGSGNSLSPSAYDYWGQGTQVTVSS" unit_info="OD450 nm" value=0.048
binder="29-MP04H02 (VHH) VHH: QVQLVESGGGLVQAGGSLRLACVASGLTFDNYYMGWFRQAPGKEREFVAGIIWNGDHTAYADSIKGRFTISRDNAKNTAYLRMNSLKPEDTAVYYCAATFWIERATTPDIGQYAYWGQGTQVTVSS" unit_info="OD450 nm" value=0.05
binder="FJ1427_P035MP04D12 (VHH) VHH: QVQLVESGGGWVQVGKSLRLSCAPSGRTFVSGIMGWFRQAPGKEREFVARIILNNNSTRYIDSVKGRFTISRDSAKNTMYLQMDSLRPEDTAVYYCAARDRYGSGNSLSPSAYDYWGQGTQVTVSS" unit_info="OD450 nm" value=0.054
binder="FJ1427_P035MP04A03 (VHH) VHH: EVQLVESGGGWVQVGESLRLSCAPSGRTFVSGIMGWFRQTPGKEREFVARIILNNNSTRYTDSVKGRFTISRDSAKNTMYLQMNTLRPEDTAVYYCAARDRYGSGNSLSPSAYDYWGQGTQVTVSS" unit_info="OD450 nm" value=0.052
binder="FJ1427_P035MP04B11 (VHH) VHH: EVQLVESGGGWVQVGESLRLSCAPSGRTFVSGIMGWFRQAPGKEREFVARIILNNNSTRYIDSVKGRFTISRDSAKNTMYLQMDSLRPEDTAVYYCAARDRYGSGNSLSPSAYDYWGQGTQVTVSS" unit_info="OD450 nm" value=0.047
binder="32-MP04A08 (VHH) VHH: QVQLVESGGGLVQAGGSLRLSCAASGRTFGSTAVGWFRQVPGKEREFVSAINRSGSATTYADSVKGRFTISRDNAKNTVYLQMNSLTPEDTGVYYCAADSLPYGRPYYFQRSAGEYDYWGQGTQVTVSS" unit_info="OD450 nm" value=0.05
binder="FJ1427_P035MP04E04 (VHH) VHH: EVQLVESGGGWVQVGESLRLSCVPSGRTFVSGIMGWFRQAPGKEREFVARIILNSNSTRYTDSVKGRFTISRDSAKNTMYLQMNSLRPEDTAVYYCAARDRYGSGNSLSPSAYDYWGQGTQVTVSS" unit_info="OD450 nm" value=0.048
binder="FJ1427_P035MP04C11 (VHH) VHH: QVQLVESGGGLVQHGGSLRLSCAASGPTFSRVAVGWFRQVPGKEREFVAVVNRPGSMTKYADSVKGRFNISRDTAKNTVYLQMNSLKPEDTAVYYCAADSVPYGRPYYFTTSAGDYDYWGQGTQVTVSS" unit_info="OD450 nm" value=0.047
binder="FJ1427_P035MP04B10 (VHH) VHH: EVQLVESGGGWVQVGESLRLSCAPSGRTFVSGIMGWFRQAPGKEREFVARIILNNNSTRYIDSVKGRFTISRDSAKNTMYLQMDSLRPEDTAVYYCAARDRYGSGNSLSPSAYDYWGQGTQVTVSL" unit_info="OD450 nm" value=0.047
binder="FJ1427_P035MP04C05 (VHH) VHH: QVQLVESGGGWVQVGESLRLSCAPSGRTFVSGIMGWFRQAPGKEREFVARIILNNNSTRYTDSVKGRFTISRDSAKDTMYLQMNTLRPEDTAVYYCAARDRYGSGNSLSPSAYDYWGQGTQVTVSS" unit_info="OD450 nm" value=0.047
binder="33-MP04C09 (VHH) VHH: QLQLVESGGGLVQAGGSLRLSCAASGPTFSRVAVGWFRQAPGKEREFVAAVNRPATMTKYADSVKGRFTVSRDNAKNTVDLQMNSMKPEDTAVYYCAADSVPYGRPYYWQTSAGDYDYWGQGTQVTVSS" unit_info="OD450 nm" value=0.047
binder="FJ1427_P035MP04G10 (VHH) VHH: QVQLVESGGGWVQVGESLRLSCAPSGRTFVSGIMGWFRQAPGKEREFVARIILNSNSTRYTDSAKGRFTISRDSAKNTMYLQMDSLRPEDTAVYYCAARDRYGSGNSLSPSAYDYWGQGTQVTVSS" unit_info="OD450 nm" value=0.049
binder="FJ1427_P035MP04F10 (VHH) VHH: QLQLVESGGGWVQVGESLRLSCVPSGRTFVSGIMGWFRQAPGKEREFVARIISNNNSTRYTDSVKGRFTISRDSAKNTMYLQMNTLRPEDTAVYYCAARDRYGSGNSLSPSAYDYWGQGTQVTVSS" unit_info="OD450 nm" value=0.048
